Where do the numbers come from? From paper PMC4618637.

Assay type: in vivo, rat
condition: male, Sprague Dawley, rat, plasma (peripheral and portal blood), oral, 0.3 g/kg
readout.name: Tmax

Give the measured Tmax of CC(C)=CCC[C@](C)(O[C@@H]1O[C@H](CO[C@@H]2O[C@H](CO)[C@@H](O)[C@H](O)[C@H]2O)[C@@H](O)[C@H](O)[C@H]1O)[C@H]1CC[C@]2(C)[C@@H]1[C@H](O)C[C@@H]1[C@@]3(C)CC[C@H](O[C@@H]4O[C@H](CO)[C@@H](O)[C@H](O)[C@H]4O[C@@H]4O[C@H](CO)[C@@H](O)[C@H](O)[C@H]4O)C(C)(C)[C@@H]3CC[C@]12C [Rb1, ginsenoside Rb1] . ~4 h
